Where do the numbers come from? From PubChem BioAssay (NCI).

System: HOP-62 NSCLC
PROTOCOL SUMMARY: NCI-60 one-dose screen, 48 h
ASSAY CONDITIONS: 10 µM unless noted
This is part of a sample that, as a whole, favours compounds with a hit. Of some 83,000 tested, about 20% had one in any assay. Calls of active or inactive are those of the source. Rule for the calls: active = growth percent below 10; inactive = the rest.
Use one of these outcomes when replying: Y (active), N (inactive)

// query Would you mind telling me which call this test gave COC(=O)[C@@H]1CC[C@]2(C)[C@H](CC[C@@H]3O[C@@]32C)[C@@]1(C)CC(=O)c1ccoc1 ?
// result N

* * *

Can you tell me growth for the items I'm about to list?
Test system: TK-10 renal
PROTOCOL SUMMARY: NCI-60 one-dose screen, 48 h (100 = growth as untreated, 0 = no growth, -100 = all killed)
ASSAY CONDITIONS: 10 µM unless noted
This is part of a sample that, as a whole, favours compounds with a hit. Of some 83,000 tested, about 20% had one in any assay. Calls of active or inactive are those of the source. How the source made its calls: active means growth percent below 10; inactive means the rest.

// query Item COc1ccc(-c2c(C)noc2-c2ccc(O)cc2O)cc1 has what recorded growth?
// result 99.8% (inactive)

Parameters: items (list). Returns: growth for each item.
1. O=C([C@@H](COCc1ccccc1)N1C(=O)[C@@H](N2C(=O)OC[C@@H]2c2ccccc2)[C@H]1/C=C/c1ccccc1)N1CCC(CCN2CCCCC2)CC1
2. CN1CCOCCOCCOc2ccccc2NC(=O)c2nc(cnc2N)-c2ccc(cc2)S1(=O)=O
3. COc1cc2c(=O)n(CC3CCCCC3)c3c4cc[nH]c4ncc3c2cc1OC
4. Cc1ccc2c(c1)O/C(=C\c1cccc(OCC(=O)c3ccccc3)c1)C2=O

// result
1. 59.8% (inactive)
2. 43.7% (inactive)
3. 49.8% (inactive)
4. 133% (inactive)

* * *

Test system: IGROV1 ovarian
PROTOCOL SUMMARY: NCI-60 one-dose screen, 48 h
ASSAY CONDITIONS: 10 µM unless noted
About 83,000 compounds went through this panel and 20% of them were active in at least one assay; those are over-represented in the sample as a whole. The source made the active and inactive calls. Rule for the calls: active = growth percent below 10; inactive = the rest.
Use one of these outcomes when replying: label 1 for active, label 0 for inactive

// query Would you mind telling me which call this test gave CC/C=C\C[C@H](O)C/C=C1/C(=O)C=C[C@@H]1C/C=C\CCCC(N)=O ?
// result label 0

// query What do you get for COc1ccc(/C(=C/c2ccc3ccccc3c2)c2nn[nH]n2)cc1OC ?
// result label 0

// query What do you get for CS(=O)CCCCCN=C=S (centres undefined) ?
// result label 1

// query What do you get for Cc1cc(N/N=C/c2nc(-c3ccc(Cl)cc3)oc2C)c2cc(Br)ccc2n1 ?
// result label 0

// query What do you get for CC(C)C1=C[C@@]23CC[C@@H]4[C@](C)(CCC[C@@]4(C)C(=O)OCC#CCN4CCCC4)[C@H]2C[C@@H]1[C@H]1C(=O)OC(=O)[C@H]13 ?
// result label 0

// query What do you get for O=C(Cc1ccccc1)c1ccc(Cl)cc1 ?
// result label 0

// query What do you get for COc1ccc(C(=O)/C=C/c2c(Cl)c3c(c(OC)c2Cl)OCC(=O)N3)cc1 ?
// result label 0

// query What do you get for CN1CCN(c2ccc3nc(-c4ccc5nc(-c6ccc(OCCC(C)(C)C)cc6)[nH]c5c4)[nH]c3c2)CC1 ?
// result label 0

Further cases:
// query Would you mind telling me which call this test gave COc1ccc(/C=N\NC(=O)c2ccncc2)cc1O ?
// result label 0

// query What do you get for C=C1CC2(OC1=O)C(=O)N(CCCCCCCN1C(=O)C3(CC(=C)C(=O)O3)c3ccccc31)c1ccccc12 (centres undefined) ?
// result label 0

// query What do you get for O=C(CN1CCN(c2cc3c(cc2F)c(=O)c(C(=O)O)cn3C2CC2)CC1)Nc1nc(-c2ccc(Cl)cc2)cs1 ?
// result label 0

// query What do you get for Cc1ccc(Nc2c(C(N)=O)cnc3ccc(-c4csc(N)n4)cc23)cc1 ?
// result label 0

// query What do you get for COc1ccc(CN(c2ccc(C)cc2)C2OC(=O)c3ccccc32)cc1OC (centres undefined) ?
// result label 0

// query What do you get for CC(C)(C)c1nn(-c2ccccc2)c2c1CC1(CN2Cc2ccc3c(c2)OCO3)C(=O)c2ccccc2C1=O ?
// result label 0

// query What do you get for Clc1cccc(Nc2nc(Nc3cnc4ccccc4c3)c3[nH]cnc3n2)c1 ?
// result label 0

// query What do you get for COc1cc(-c2c3c(nc4c2c(C)nn4-c2ccccc2)-c2ccccc2C(=O)C3=O)cc(OC)c1OC ?
// result label 0

// query What do you get for CC(C)CC(CC1=CCC2CC1C2(C)C)C1=C(O)C(C)(C)C(=O)C(C)(C)C1=O (centres undefined) ?
// result label 0

// query What do you get for CNC(=O)c1cc(Oc2ccc3nc(NC(=O)Nc4ccc(CN5CCOCC5)c(C(F)(F)F)c4)sc3c2)ccn1 ?
// result label 0

// query What do you get for CCCCCCCCCC(=O)Oc1ccc(/C(=C(/C)Cc2cccc(OC)c2)c2ccc(OCCN(C)C)cc2)cc1 ?
// result label 0

* * *

Tested on: NCI-H522 lung
PROTOCOL SUMMARY: NCI-60 one-dose screen, 48 h
ASSAY CONDITIONS: 10 µM unless noted
About 83,000 compounds went through this panel and 20% of them were active in at least one assay; those are over-represented in the sample as a whole. Activity calls are given as the source filed them. How the source made its calls: active means growth percent below 10; inactive means the rest.
Use one of these outcomes when replying: active, inactive

Past entries and their recorded results:
// query Would you mind telling me which call this test gave COc1cc(C#N)cc(OC)c1OCCN(CCOc1c(OC)cc(C#N)cc1OC)S(=O)(=O)c1ccc(C)cc1 ?
// result inactive

// query What do you get for c1ccc2sc(SCCCn3ccnc3)nc2c1 ?
// result inactive

// query What do you get for CCCCCCCCCCNC(=O)CCl ?
// result inactive

// query What do you get for COc1ccc(CCN2CCCn3c2nc2ccccc2c3=O)cc1 ?
// result inactive

// query What do you get for CC/C(Cc1ccccc1)=C(/c1ccc(O)cc1)c1ccc(OCCN2CCCC2)cc1 ?
// result active

Please examine the following record next.
// query Would you mind telling me which call this test gave COc1ccc(C(=O)c2sc3nc4c(c(C(F)(F)F)c3c2N)CN(C(C)=O)CC4)cc1OC ?
// result inactive

* * *

Can you tell me growth for the items I'm about to list?
Tested on: HT29 colon
PROTOCOL SUMMARY: NCI-60 one-dose screen, 48 h (100 = growth as untreated, 0 = no growth, -100 = all killed)
ASSAY CONDITIONS: 10 µM unless noted
The panel holds about 83,000 compounds, 20% with a hit somewhere; the sample as a whole holds those more often.
Numbers only, in %.

Consider the following illustrative entries.
// query Item COc1cc(NC(N)=NCC(C)(C)COc2ccc(C(F)(F)F)cc2)cnc1C#N has what recorded growth?
// result 26.9

// query What do you get for CCC(C)[C@@H]1NC(=O)[C@@H]2CCCN2C(=O)[C@H](Cc2ccccc2)NC(=O)[C@@H]2CCCN2C(=O)[C@H](Cc2ccccc2)NC(=O)[C@@H]2CCCN2C(=O)[C@H](Cc2ccccc2)NC1=O (stereo not given in full) ?
// result 113

// query What do you get for O=C(CN1CCN(c2cc3c(cc2F)c(=O)c(C(=O)N/N=C/c2ccccc2)cn3C2CC2)CC1)N/N=C\c1ccccc1 ?
// result 73.4

// query What do you get for CCOC(=O)c1ccc2c(c1)nc(/C=C/c1ccc(Cl)cc1)n2-c1cc(C(C)(C)C)[nH]n1 ?
// result 57.7

For the next question, use this compound.
// query Item Cc1ccc(-c2nc(/C=N/Nc3cc(C)nc4ccc(Cl)cc34)c(C)o2)cc1 has what recorded growth?
// result -77.9

* * *

Tested on: A549/ATCC NSCLC
PROTOCOL SUMMARY: NCI-60 one-dose screen, 48 h (100 = growth as untreated, 0 = no growth, -100 = all killed)
ASSAY CONDITIONS: 10 µM unless noted
Description: Growth inhibition of the A549/ATCC human Non-Small Cell Lung tumor cell line is measured as a screen for anti-cancer activity. Cells are grown in 96 well plates and exposed to the test compound for 48 hours. Compounds are tested at a single concentration, which is 10^-5 M for most compounds. The reported endpoint is percent growth (GI% or GIPRCNT), where numbers from 0 - 100% represent growth inhibition, and numbers from -100% - 0 represent cell death. […]
About 83,000 compounds went through this panel and 20% of them were active in at least one assay; those are over-represented in the sample as a whole.
ASSAY READOUT: growth (%)
Answers are plain numbers, in %.

Consider the following illustrative entries.
// query Item CCOC(=O)c1c2c(n3ccc(NC(=O)CCN(CC)CC)cc13)C(=O)c1ncccc1C2=O has what recorded growth?
// result 36.2

// query What do you get for COC(=O)[C@H](C(C)C)n1c(=O)c2cc(OC)c(OC)cc2c2cnc3[nH]ccc3c21 ?
// result 40.7

Parameters: items (list). Returns: growth for each item.
1. Cc1cc(Nc2nc(N3CCNCC3)nc3ccccc23)n[nH]1
2. O=[N+]([O-])c1cccc(-c2nc3sccn3c2-c2ccnc(NCCCNS(=O)(=O)c3cccc(F)c3)n2)c1
3. Fc1ccc(Cc2ccc(F)cc2)cc1
4. CC(C)c1c(C(=O)Nc2ccccc2)c(-c2ccccc2)c(-c2ccc(F)cc2)n1CC[C@@H]1CC=CC(=O)O1

// result
80.8
7.27
103
-9.24

Parameters: items (list). Returns: growth for each item.
1. N#Cc1c(N)nc(N)nc1Nc1ccc(Br)cc1
2. CN1Cc2c(cc(CN3CCCCC3)n2C)C(c2ccc(Br)cc2)C1 (stereo not given)
3. COc1ccc(S(=O)(=O)NCCCNc2nccc(-c3c(-c4cccc(N)c4)nc4sccn34)n2)cc1
4. CC1=CC(=O)CC(C)(C)[C@@]1(O)/C=C/[C@@H](C)O

// result
1: 78.2; 2: 93.8; 3: 99.7; 4: 87.7
